assay: chemical genetic growth profiling, strain panel (AID 1159580);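 also: tested at 20 µM; growth read once vehicle control cultures reached saturation at 30 °C; lower values mean less growth of the strain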; conditions: S. cerevisiae deletion strains, growth OD, locus YER111C, strain swi4
Hit rate of the full screen: of about 5,500 compounds, about 2,000 (36%) were called active. About 18% were inconclusive and are not listed. Rule as the data show it: active = normalized growth mostly below about 0.91 (no sharp cut-off); inconclusive = no clear call, values can overlap the other calls; inactive = mostly above about 0.92. The list shows a part of the results.
Classes to choose from: active, inactive

Problem: Could you please tell me the result logged for CC(=O)O[C@H]1C(=O)[C@@]2(C)C([C@H](OC(=O)c3ccccc3)[C@]3(O)C[C@H](OC(=O)[C@H](O)[C@@H](NC(=O)c4ccccc4)c4ccccc4)C(C)=C1C3(C)C)[C@]1(OC(C)=O)CO[C@@H]1C[C@@H]2O (stereo partly specified) in this assay?
Result: inactive

Problem: Could you please tell me the result logged for OCc1ccccc1O[C@@H]1O[C@H](CO)[C@@H](O)[C@H](O)[C@H]1O in this assay?
Result: inactive

Problem: Could you please tell me the result logged for COc1ccc(C(=O)c2ccccc2O)c(O)c1 in this assay?
Result: active

Problem: Could you please tell me the result logged for COc1ccc(C[C@H]2NC[C@H](O)[C@H]2OC(C)=O)cc1 in this assay?
Result: inactive

Problem: Could you please tell me the result logged for CCC1(c2ccccc2)C(=O)NCNC1=O in this assay?
Result: inactive

Problem: Could you please tell me the result logged for CC[C@@H](CO)NCCN[C@@H](CC)CO in this assay?
Result: inactive

Problem: Could you please tell me the result logged for CC(=O)O[C@]1(C(C)=O)CCC2C3C=C(Cl)C4=CC(=O)CC[C@]4(C)C3CC[C@@]21C (stereo partly specified) in this assay?
Result: inactive

Problem: Could you please tell me the result logged for S=C=NCc1ccccc1 in this assay?
Result: active

Problem: Could you please tell me the result logged for COc1ccc2c(c1)C1(C)CCC(=O)CC1CC2 (stereo unspecified) in this assay?
Result: inactive

Problem: Could you please tell me the result logged for CC1(C)S[C@@H]2[C@H](NC(=O)[C@H](NC(=O)N3CCNC3=O)c3ccccc3)C(=O)N2C1C(=O)O (stereo partly specified) in this assay?
Result: inactive

Problem: Could you please tell me the result logged for CCCCOc1ccc(CC(=O)NO)cc1 in this assay?
Result: inactive

The measurements presented in this section are drawn from PubChem BioAssay AID1159580.
